target.desc: Atrial natriuretic peptide receptor 3 (Homo sapiens, UniProt P17342)
Sequence (P17342 whole entry, the tested form may be a part): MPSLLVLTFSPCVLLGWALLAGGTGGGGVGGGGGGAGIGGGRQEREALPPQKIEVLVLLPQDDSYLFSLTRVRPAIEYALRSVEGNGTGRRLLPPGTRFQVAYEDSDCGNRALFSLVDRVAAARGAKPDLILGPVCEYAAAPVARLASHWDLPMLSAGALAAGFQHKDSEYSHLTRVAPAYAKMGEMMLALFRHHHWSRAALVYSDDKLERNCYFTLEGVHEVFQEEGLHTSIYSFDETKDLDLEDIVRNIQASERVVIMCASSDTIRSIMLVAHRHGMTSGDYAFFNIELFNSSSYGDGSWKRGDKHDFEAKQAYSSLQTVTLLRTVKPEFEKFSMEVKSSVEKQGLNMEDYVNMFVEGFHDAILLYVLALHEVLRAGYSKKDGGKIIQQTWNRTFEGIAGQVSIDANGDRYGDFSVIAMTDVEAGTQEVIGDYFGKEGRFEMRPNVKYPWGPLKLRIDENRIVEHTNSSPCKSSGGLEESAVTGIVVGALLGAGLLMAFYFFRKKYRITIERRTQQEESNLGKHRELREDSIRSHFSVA
assay.overview: Displacement of [125I]-human ANP from His-tagged and Fc fragment containing human NPR-3 extracellular domain expressed in FreeStyle 293 cells incubated for 2 hrs by top count method
pIC50: −log10 of the molar value. Square brackets hold non-standard residues; d marks the D form. Peptide text beside a SMILES is read from it. Cha = N[C@@H](CC1CCCCC1)C(=O)O
Output rule met for pIC50 not less than 8; output rule not met otherwise.

Reported pIC50 at or above 8? `CC[C@H](C)[C@H](NC(=O)[C@H](CCCNC(=N)N)NC(=O)[C@H](CC(=O)O)NC(=O)[C@@H](NC(=O)[C@@H]1CCCN1C(=O)CNC(=O)[C@@H](C)NC(=O)[C@H](CC1CCCCC1)NC(=O)[C@H]1CCCN1C(=O)[C@H](CO)NC(=O)[C@@H](Cc1ccccc1)NC(C)=O)[C@@H](C)CC)C(=O)NC`
rule met

Reported pIC50 at or above 8? `CC[C@H](C)[C@H](NC(=O)[C@H](CCCNC(=N)N)NC(=O)[C@H](CC(=O)O)NC(=O)[C@@H](NC(=O)[C@H](CCCNC(=N)N)NC(=O)CNC(=O)CNC(=O)[C@H](CC1CCCCC1)NC(=O)CNC(=O)[C@H](CO)NC(=O)[C@@H](Cc1ccccc1)NC(C)=O)[C@@H](C)CC)C(=O)NCC(N)=O`
rule met

Reported pIC50 at or above 8? CC[C@H](C)[C@H](NC(=O)[C@H](CCCNC(=N)N)NC(=O)[C@H](CC(=O)O)NC(=O)[C@@H](NC(=O)[C@H](CCCNC(=N)N)NC(=O)CNC(=O)CNC(=O)[C@H](Cc1ccccc1)NC(=O)[C@H](CS)NC(=O)[C@H](CO)NC(=O)[C@H](CO)NC(=O)[C@@H](N)CCCNC(=N)N)[C@@H](C)CC)C(=O)NCC(=O)N[C@@H](C)C(=O)N[C@@H](CS)C(=O)O (H-RSSCFGGRIDRIGAC-OH)
rule met

Reported pIC50 at or above 8? CC[C@H](C)[C@H](NC(=O)[C@H](CCCNC(=N)N)NC(=O)[C@H](CC(=O)O)NC(=O)[C@@H](NC(=O)[C@H](CCCNC(=N)N)NC(=O)CNC(=O)CNC(=O)[C@H](CC1CCCCC1)NC(=O)[C@H](CS)NC(C)=O)[C@@H](C)CC)C(=O)NCC(N)=O (Ac-C[Cha]GGRIDRIG-NH2)
rule not met

----------
assay.overview: Stability in 10% C57BL/6J mouse serum/phosphate-buffered saline assessed as residual parent compound remaining at 1 mM after 30 mins at 37 degC by HPLC method
Assay type: ADME, cell-free
recorded.conditions: 10% mouse serum in phosphate-buffered saline, read-out: Stability
Square brackets hold non-standard residues; d marks the D form. Peptide text beside a SMILES is read from it. Cha = N[C@@H](CC1CCCCC1)C(=O)O
property.name: remaining at 0.5 h, 1000 µM
Give the value; after it, write the unit.

Entry `CC[C@H](C)[C@H](NC(=O)[C@H](CCCNC(=N)N)NC(=O)[C@H](CC(=O)O)NC(=O)[C@@H](NC(=O)[C@H](CCCNC(=N)N)NC(=O)CNC(=O)CNC(=O)[C@H](CC1CCCCC1)NC(=O)[C@H]1CCCN1C(=O)[C@H](CO)NC(=O)[C@H](N)Cc1ccccc1)[C@@H](C)CC)C(=O)NCC(N)=O` — recorded remaining at 0.5 h, 1000 µM = 80%

Entry `CC[C@H](C)[C@H](NC(=O)[C@H](CCCNC(=N)N)NC(=O)[C@H](CC(=O)O)NC(=O)[C@@H](NC(=O)[C@H](CCCNC(=N)N)NC(=O)CNC(=O)CNC(=O)[C@H](CC1CCCCC1)NC(=O)CNC(=O)[C@H](CO)NC(=O)[C@H](N)Cc1ccccc1)[C@@H](C)CC)C(=O)NCC(N)=O` — recorded remaining at 0.5 h, 1000 µM = 100%

Entry CC[C@H](C)[C@H](NC(=O)[C@H](CCCNC(=N)N)NC(=O)[C@H](CC(=O)O)NC(=O)[C@@H](NC(=O)[C@H](CCCNC(=N)N)NC(=O)CNC(=O)CNC(=O)[C@H](CC1CCCCC1)NC(=O)CNC(=O)[C@H](CO)NC(=O)[C@H](Cc1ccccc1)NC(=O)[C@H](CO)NC(=O)[C@@H](N)CCCNC(=N)N)[C@@H](C)CC)C(=O)NCC(N)=O (H-RSFSG[Cha]GGRIDRIG-NH2) — recorded remaining at 0.5 h, 1000 µM = 5%

----------
assay.overview: Drug level in mouse blood at 1000 nmol/kg/day dosed as continuous administration for 3 days
Format: ADME, organism-based
recorded.conditions: whole blood, read-out: Drug uptake
Could you please report measured concentration at 72 h for the items listed next?
Quick note: give the figure in nM, leave out the unit.

Entry `CC[C@H](C)[C@H](NC(=O)[C@H](CCCNC(=N)NC)NC(=O)[C@H](CC(=O)O)NC(=O)[C@@H](NC(=O)[C@@H]1CCCN1C(=O)CNC(=O)[C@@H](C)NC(=O)[C@H](CC1CCCCC1)NC(=O)[C@H]1CCCN1C(=O)[C@H](CO)NC(=O)[C@@H](Cc1ccccc1)NC(C)=O)[C@@H](C)CC)C(=O)NC` — recorded concentration at 72 h = 13.7

Entry `CC[C@H](C)[C@H](NC(=O)[C@H](CCCNC(=N)NC)NC(=O)[C@H](CC(=O)O)NC(=O)[C@@H](NC(=O)[C@@H]1C[C@@H](O)CN1C(=O)CNC(=O)[C@@H](CO)NC(=O)[C@H](CC1CCCCC1)NC(=O)[C@H]1C[C@H](O)CN1C(=O)[C@H](CO)NC(=O)[C@@H](Cc1ccccc1)NC(=O)CO)[C@@H](C)CC)C(=O)NC` — recorded concentration at 72 h = 40.5

----------
assay.overview: Stability in 10% C57BL/6J mouse serum/phosphate-buffered saline assessed as residual parent compound remaining at 1 mM after 60 mins at 37 degC by HPLC method
Assay type: ADME, cell-free
recorded.conditions: 10% mouse serum in phosphate-buffered saline, read-out: Stability
Bridge positions count the residues as written; N and C are the ends. Square brackets hold non-standard residues; d marks the D form. Peptide text beside a SMILES is read from it. Cha = N[C@@H](CC1CCCCC1)C(=O)O
property.name: remaining at 1 h, 1000 µM (%)
Quick note: give the figure in %, leave out the unit.

Entry `CC[C@H](C)[C@H](NC(=O)[C@H](CCCNC(=N)N)NC(=O)[C@H](CC(=O)O)NC(=O)[C@@H](NC(=O)[C@H](CCCNC(=N)N)NC(=O)CNC(=O)CNC(=O)[C@H](CC1CCCCC1)NC(=O)CNC(=O)[C@H](CO)NC(=O)[C@H](N)Cc1ccccc1)[C@@H](C)CC)C(=O)NCC(N)=O` — recorded remaining at 1 h, 1000 µM = 80

Entry CC[C@H](C)[C@H](NC(=O)[C@H](CCCNC(=N)N)NC(=O)[C@H](CC(=O)O)NC(=O)[C@@H](NC(=O)[C@H](CCCNC(=N)N)NC(=O)CNC(=O)CNC(=O)[C@H](CC1CCCCC1)NC(=O)CNC(=O)[C@H](CO)NC(=O)[C@H](Cc1ccccc1)NC(=O)[C@H](CO)NC(=O)[C@@H](N)CCCNC(=N)N)[C@@H](C)CC)C(=O)NCC(N)=O (H-RSFSG[Cha]GGRIDRIG-NH2) — recorded remaining at 1 h, 1000 µM = 0

Entry `CC[C@H](C)[C@H](NC(=O)[C@H](CCCNC(=N)N)NC(=O)[C@H](CC(=O)O)NC(=O)[C@@H](NC(=O)[C@H](CCCNC(=N)N)NC(=O)CNC(=O)CNC(=O)[C@H](CC1CCCCC1)NC(=O)[C@H]1CCCN1C(=O)[C@H](CO)NC(=O)[C@H](N)Cc1ccccc1)[C@@H](C)CC)C(=O)NCC(N)=O` — recorded remaining at 1 h, 1000 µM = 63

Entry `CC[C@H](C)[C@H](NC(=O)[C@H](CCCNC(=N)N)NC(=O)[C@H](CC(=O)O)NC(=O)[C@@H](NC(=O)[C@H](CCCNC(=N)N)NC(=O)CNC(=O)CNC(=O)[C@H](CC1CCCCC1)NC(=O)CNC(=O)[C@H](CO)NC(=O)[C@@H](N)Cc1ccccc1)[C@@H](C)CC)C(=O)NCC(N)=O` — recorded remaining at 1 h, 1000 µM = 0

Entry CC[C@H](C)[C@@H]1NC(=O)[C@H](CCCNC(=N)N)NC(=O)[C@H](CC(=O)O)NC(=O)[C@H]([C@@H](C)CC)NC(=O)[C@H](CCCNC(=N)N)NC(=O)CNC(=O)CNC(=O)[C@H](Cc2ccccc2)NC(=O)[C@@H](NC(=O)[C@H](CO)NC(=O)[C@H](CO)NC(=O)[C@@H](N)CCCNC(=N)N)CSSC[C@@H](C(=O)O)NC(=O)[C@H](C)NC(=O)CNC1=O (H-RSSCFGGRIDRIGAC-OH; disulfide 4-15) — recorded remaining at 1 h, 1000 µM = 2
